Measured values drawn from ChEMBL document CHEMBL1156829 for this set.

The entries below are paired with their reported CC50.
assay: NOVARTIS: Cytotoxicity against human hepatocellular carcinoma cell line (Huh7); type: toxicity, cell-based, Huh-7; conditions: Huh7 cells (hepatocellular carcinoma cell line)

# Molecule, CC50
rows = [
    ("C=CCNC(=O)c1cc2c(=O)n3ccccc3nc2n(CCc2ccccc2)c1=N", "> 100 µM"),
    ("CCCOC(=O)C1=C(C)NC2=C(C(=O)CC(c3ccc(OC)cc3)C2)C1c1cccc(F)c1 (stereo unspecified)", "> 100 µM"),
    ("CCN(CC)C(=O)COc1ccc(-c2nnc(N3CCCCC3)c3ccccc23)cc1", "> 100 µM"),
    ("CN(C)c1cc[n+](CC(=O)c2ccc(Br)cc2)cc1", "75.6 µM"),
    ("CCC12C(=O)C(CC)(C(c3ccccc3)=C1c1ccccc1)C1C(=O)N(c3cccc(C(F)(F)F)c3)C(=O)C12 (stereo unspecified)", "> 100 µM"),
    ("COc1ccc2cc(CNC3CCN(Cc4ccccc4)CC3)c(=O)[nH]c2c1", "> 65.9 µM"),
    ("CCOc1ccc(NC(=O)C(C)CSc2nc3ccc(NC(=O)CC)cc3s2)cc1 (stereo unspecified)", "> 100 µM"),
    ("CCc1ccc2[nH]c(=O)c(CN(CCCN(CC)CC)C(=S)NCCCN(C)C)cc2c1", "> 100 µM"),
    ("COC(=O)C1N(C(=O)OC)c2ccc([N+](=O)[O-])cc2S1(=O)=O (stereo unspecified)", "> 10 µM"),
    ("CCN(CC)CCCNC(=S)N(Cc1ccc(F)cc1)Cc1cc2cc(C)cc(C)c2[nH]c1=O", "22.5 µM"),
    ("O=C(CCl)NCCOc1ccc(Cl)cc1Cl", "13 µM"),
    ("COc1cc(Nc2nccn3c(-c4ccsc4)cnc23)cc(OC)c1OC", "> 10 µM"),
    ("Cc1ccc(Cn2c(N3CCC(C(=O)NCc4ccc(F)cc4)CC3)nc3ccccc32)cc1", "> 100 µM"),
    ("O=C(NNC(=O)c1csnn1)c1ccc(C(F)(F)F)cc1", "> 100 µM"),
    ("CN(C)c1ccc(/C=C/c2cccc(/C=C/c3ccc(N(C)C)cc3)[n+]2C)cc1", "2.53 µM"),
    ("CCOc1cc(/C=C(\\C#N)c2nc3ccccc3[nH]2)ccc1OCc1ccccc1C#N", "> 10 µM"),
    ("CC(C)(C)c1ccc(CNC(=O)C(Cc2ccc(O)cc2)c2ccccc2)cc1 (stereo unspecified)", "53.2 µM"),
    ("O=C(NCC1CCCO1)c1cc(S(=O)(=O)N2CCCCC2)c[nH]1 (stereo unspecified)", "> 10 µM"),
    ("CC1=C(C(=O)OC2CCCCC2)C(c2cccc([N+](=O)[O-])c2)C2=C(CCCC2=O)N1 (stereo unspecified)", "68.4 µM"),
    ("Clc1ccccc1Nc1nc2nonc2nc1Nc1cccc(Br)c1", "> 10 µM"),
    ("Cc1cc(Nc2cccc3ccccc23)nc(Nc2cccc3ccccc23)n1", "> 10 µM"),
]

----------
The entries below are paired with their reported CC50.
test: NOVARTIS: Cytotoxicity against human hepatocellular carcinoma cell line (Huh7); type: toxicity, cell-based, Huh-7; conditions: Huh7 cells (hepatocellular carcinoma cell line)
Assay Readout: CC50

# Molecule, Assay Readout, Result
data = [
    ("Cc1ccc(C(=O)Nc2ccc(-c3nc4cc5ccccc5cc4[nH]3)cc2)cc1[N+](=O)[O-]", "CC50", "> 100 µM"),
    ("CC(C)(C)CC(=O)NCCCCNc1ccnc2cc(Cl)ccc12", "CC50", "> 12.2 µM"),
    ("Cc1cccc(C)c1OCC(=O)Nc1ccccc1O", "CC50", "> 100 µM"),
    ("CC(C)CN1C(=O)c2ccccc2C(C(=O)Nc2ccc(F)cc2F)C1c1cccs1 (stereo not given)", "CC50", "> 100 µM"),
    ("Cc1cc(NS(=O)(=O)c2ccc(NC(=O)c3ccc([N+](=O)[O-])cc3)cc2)no1", "CC50", "> 10 µM"),
]

----------
assay: NOVARTIS: Cytotoxicity against human hepatocellular carcinoma cell line (Huh7); type: toxicity, cell-based, Huh-7; conditions: Huh7 cells (hepatocellular carcinoma cell line)
The entries below are paired with their reported CC50.

# Molecule, CC50
records = [
    ("Oc1ccccc1Nc1nc(NCc2ccccc2)c2ccccc2n1", "12.5 µM"),
    ("CN(CCCNc1ccnc2cc(Cl)ccc12)C(=O)c1ccc(Cl)c(Cl)c1", "> 8.36 µM"),
    ("COc1cc(C(=O)ON=C(N)Cc2cccc3ccccc23)cc(OC)c1OC", "48.1 µM"),
    ("NC(=S)NN=CC(=NNC(N)=S)c1ccccc1", "> 10 µM"),
    ("COc1ccccc1-n1c(C(C)N(C)C(=O)Nc2ccccc2F)nc2ccccc2c1=O (stereo not given)", "> 12.4 µM"),
    ("CCCCOc1ccc(/C=C/C(=O)NCc2ccco2)cc1", "> 10 µM"),
    ("CCOC(=O)C1=C(C)NC2=C(C(=O)CC(c3ccc(OC)c(OC)c3)C2)C1c1cccc(Br)c1 (stereo not given)", "> 100 µM"),
    ("CCCCCC(=O)N(CCN(C)C)C(CC)c1nc2ccccc2c(=O)n1-c1ccc(F)cc1 (stereo not given)", "> 10 µM"),
    ("CC(C)N1CC[C@@H](N2CCN(c3cccc(C(F)(F)F)c3)CC2)[C@@H](CCC(=O)N(C)C2CCN(C)CC2)C1", "5.13 µM"),
    ("CC(C)c1cccc(C(C)C)c1NC(=O)N(Cc1ccccc1)C(C)c1nc2ccccc2c(=O)n1-c1ccc(Cl)cc1 (stereo not given)", "> 1.46 µM"),
]

----------
system: Plasmodium falciparum; assay: NOVARTIS: Inhibition of Plasmodium falciparum W2 (drug-resistant) proliferation in erythrocyte-based infection assay; format: functional, organism-based; settings: Plasmodium falciparum, W2; read-out: EC50
pEC50: −log10 of the molar value.
The entries below are paired with their reported pEC50.

# Molecule, pEC50
data = [
    ("CCCCOc1cccc(C(=O)N(Cc2cccs2)c2ccc(OC)cc2)c1", 7.21),
    ("CCOc1cc(C2C(C(=O)OC)=CNC=C2C(=O)OC)cc(Br)c1OCC", 6.56),
    ("C1CCC(NP2(NC3CCCCC3)=NP(NC3CCCCC3)(NC3CCCCC3)=NP(NC3CCCCC3)(NC3CCCCC3)=N2)CC1", 5.50),
    ("c1cc(-c2nc3ccccc3[nH]2)nc(-c2nc3ccccc3[nH]2)c1", 6.04),
    ("COC(=O)C1=C(C)NC(=Cc2cc(C)n(-c3ccc(Cl)c(Cl)c3)c2C)C1=O", 5.20),
    ("CCN(CC)CCCC(C)NCc1ccc(OCc2ccccc2)c(OC)c1 (stereo not given)", 6.31),
    ("O=C(Nc1cc(Cl)ccc1O)c1cnn2c(C(F)(F)F)cc(-c3ccc(F)cc3)nc12", 5.54),
    ("CC(=O)N(C=C1Sc2ccccc2C1=O)c1ccc(C)cc1", 5.71),
    ("CCc1ccc(NC(=O)C2c3ccccc3C(=O)N(CC(C)C)C2c2cccs2)cc1 (stereo not given)", 6.22),
    ("Cc1cc(N2CCN(C)CC2)nc2ccc(NC(=O)c3ccc(Br)o3)cc12", 5.57),
]

----------
The entries below are paired with their reported CC50.
system: Huh-7; experiment: NOVARTIS: Cytotoxicity against human hepatocellular carcinoma cell line (Huh7); type: toxicity, cell-based; settings: huh-7, read-out: CC50
Structures can show the parent of a compound that is named as a salt.

# Molecule, CC50
measured = [
    ("CC[n+]1c(C=CC=C2N(C)c3ccccc3C2(C)C)sc2ccccc21", "> 10 µM"),
    ("C=CCN1C=CC(=Cc2sc3ccccc3[n+]2C)c2ccccc21", "14.2 µM"),
    ("C[n+]1ccccc1C=Cc1cc(Br)ccc1O", "> 10 µM"),
    ("CC[n+]1c(C=CN(C)c2ccccc2)sc2ccc(OC)cc21.[O-][Cl+3]([O-])([O-])[O-]", "> 100 µM"),
    ("CN(C)c1ccc(C=CC=Cc2cccc[n+]2C)cc1", "> 10 µM"),
    ("CCN1/C(=C/C=C/c2oc3ccc(-c4ccccc4)cc3[n+]2CC)Oc2ccc(-c3ccccc3)cc21", "10.7 µM"),
    ("Cc1ccc(N=C2NC(=O)/C(=C\\c3ccc(N(C)C)cc3)S2)cc1", "> 100 µM"),
    ("CCn1c(C=CN(C(C)=O)c2ccccc2)[n+](CC)c2cc(Cl)ccc21", "> 10 µM"),
    ("COc1ccc2c(ccc(/C=C3\\C=CC=CN3C)[n+]2C)c1", "> 100 µM"),
    ("CCN(CC)C1SC=C(c2ccc([N+](=O)[O-])cc2)S1 (stereo unspecified)", "> 96 µM"),
    ("CC[n+]1c(C=CC=C2N(C)c3ccccc3C2(C)C)sc2ccccc21.[O-][Cl+3]([O-])([O-])[O-]", "1.63 µM"),
    ("COc1cc(/C=C2/SC(=Nc3ccccc3)NC2=O)ccc1OCc1ccccc1Cl", "> 100 µM"),
    ("CCN1/C(=C/C=C/c2sc3ccccc3[n+]2CC)Sc2ccccc21", "9.03 µM"),
    ("CC[n+]1c(/C=C/N2CCCc3ccccc32)ccc2ccccc21", "2.34 µM"),
    ("CCN1/C(=C/c2ccc3cc(OC)ccc3[n+]2CC)Sc2ccc(NC(C)=O)cc21", "> 52 µM"),
    ("CCN1C(=Cc2sc3ccc(O)cc3[n+]2CC)C=Cc2cc(C)ccc21", "> 10 µM"),
    ("CCOc1ccc2nccc([C@@H](O)[C@@H]3C[C@@H]4CCN3C[C@@H]4CC)c2c1 [ETHYLHYDROCUPREINE HYDROCHLORIDE]", "> 10 µM"),
    ("CCN1/C(=C/c2sc3ccccc3[n+]2CC)Sc2ccccc21", "32.6 µM"),
    ("CCN1C(=Cc2sc3cc(NC(C)=O)ccc3[n+]2CC)C=Cc2cc(C)ccc21", "> 10 µM"),
]
